Target: Lck (h) (Homo sapiens)
Sequence (P06239 whole entry): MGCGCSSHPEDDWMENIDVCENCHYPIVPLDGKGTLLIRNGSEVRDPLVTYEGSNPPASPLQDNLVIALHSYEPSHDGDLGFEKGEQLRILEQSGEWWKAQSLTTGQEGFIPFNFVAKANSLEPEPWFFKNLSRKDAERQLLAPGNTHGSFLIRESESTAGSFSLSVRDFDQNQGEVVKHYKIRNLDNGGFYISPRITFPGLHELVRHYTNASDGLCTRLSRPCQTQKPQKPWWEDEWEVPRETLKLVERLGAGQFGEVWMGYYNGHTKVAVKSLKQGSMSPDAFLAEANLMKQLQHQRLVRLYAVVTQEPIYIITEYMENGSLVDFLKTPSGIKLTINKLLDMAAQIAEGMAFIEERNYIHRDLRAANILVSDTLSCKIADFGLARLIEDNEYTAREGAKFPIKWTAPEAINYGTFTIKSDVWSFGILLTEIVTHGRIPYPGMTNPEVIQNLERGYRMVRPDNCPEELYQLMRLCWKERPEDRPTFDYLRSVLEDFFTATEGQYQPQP
Assay: Lck Human STE Kinase Enzymatic Radiometric Assay
Assay type: biochemical
Details: radiometric, [gamma-33P]-ATP, Cdc2 peptide substrate; read-out: Lck IC50, nM Range*
Experimental: (b) Lck Human STE Kinase Enzymatic Radiometric Assay Lck (h) is incubated with 50 mM Tris pH 7.5, 0.1 mM EGTA, 0.1 mM Na3VO4, 250 uM KVEKIGEGTYGVVYK (Cdc2 peptide), 10 mM MgAcetate and [gamma-33P]-ATP (specific activity and concentration as required). The reaction is initiated by the addition of the Mg/ATP mix. After incubation for 40 minutes at room temperature, the reaction is stopped by the addition of phosphoric acid to a concentration of 0.5%. […]
RECORDED_ENDPOINT: IC50

*Q* GET /values?readout=IC50&system=Lck (h) (Homo sapiens)&item= CC(C)N1C[C@H]2C[C@@]2(c2ccc(-c3cnc(N)c(-c4cc5c(cc4F)C(=O)NCC5)n3)cc2)C1 [Example I-46]
*A* 11 to 20 nM

*Q* Please give the result for C[C@@H]1CCCN1c1ccc(-c2cnc(N)c(-c3ccc4c(c3)CCNC4=O)n2)c(F)c1 [Example I-43] too.
*A* 21 to 200 nM

*Q* What about CC(C)[C@@H]1CN(c2ccc(-c3cnc(N)c(-c4ccc5c(c4)CCNC5=O)n3)cc2)CCN1C [Example I-38] ?
*A* 6 to 10 nM

*Q* Okay, and CC(C)[C@H]1CN(c2ccc(-c3cnc(N)c(-c4cc5c(cc4F)C(=O)NCC5)n3)cc2)CCO1 [Example I-28] ?
*A* 11 to 20 nM

---

Below: a set of entries, each annotated with reported IC50.
Molecular target: UniProtKB P06239
Experiment: Lck Human STE Kinase Enzymatic Radiometric Assay
Type: biochemical
Settings: radiometric, [gamma-33P]-ATP, Cdc2 peptide substrate; read-out: Lck IC50, nM Range*

Recorded results for 4 compounds are shown here.
[
  {
    "COMPOUND": "CN(C)C1CCN(c2ccc(-c3cnc(N)c(-c4ccc5c(c4)CCNC5=O)n3)c(F)c2F)C1 (stereo not shown)",
    "STUDY_TARGET": "UniProtKB P06239",
    "RESULT": "11 to 20 nM"
  },
  {
    "COMPOUND": "C[C@@H]1CCCCN1c1ccc(-c2cnc(N)c(-c3ccc4c(c3)CCNC4=O)n2)c(F)c1",
    "STUDY_TARGET": "UniProtKB P06239",
    "RESULT": "21 to 200 nM"
  },
  {
    "COMPOUND": "CN1CCN(c2ccc(-c3cnc(N)c(-c4ccc5c(c4)CCNC5=O)n3)cc2)C=N1",
    "STUDY_TARGET": "UniProtKB P06239",
    "RESULT": "11 to 20 nM"
  },
  {
    "COMPOUND": "CN1C[C@H]2C[C@@]2(c2ccc(-c3cnc(N)c(-c4cc5c(cc4F)C(=O)NCC5)n3)cc2)C1",
    "STUDY_TARGET": "UniProtKB P06239",
    "RESULT": "11 to 20 nM"
  }
]

Proceed to the following item.
*Q* Return reported IC50; argument: CN1CCN(c2ccc(-c3cnc(N)c(-c4ccc5c(c4)C(C)(C)NC5=O)n3)cc2)CC1
*A* 6 to 10 nM

---

Target: Lck (h) (Homo sapiens)
Test: Lck Human STE Kinase Enzymatic Radiometric Assay
Assay type: biochemical
Settings: radiometric, [gamma-33P]-ATP, Cdc2 peptide substrate; read-out: Lck IC50, nM Range*
RECORDED_ENDPOINT: IC50

[
  {
    "COMPOUND": "CN1C[C@@H]2C[C@H]1CN2c1ccc(-c2cnc(N)c(-c3ccc4c(c3)CCNC4=O)n2)cc1 [Example I-26]",
    "IC50": "11 to 20 nM"
  },
  {
    "COMPOUND": "CC(C)[C@H]1CN(c2ccc(-c3cnc(N)c(-c4ccc5c(c4)CCNC5=O)n3)cc2)CCN1C [Example I-40]",
    "IC50": "6 to 10 nM"
  },
  {
    "COMPOUND": "CC(C)[C@@H]1CN(c2ccc(-c3cnc(N)c(-c4ccc5c(c4)CCNC5=O)n3)cc2)CCO1 [Example I-7]",
    "IC50": "11 to 20 nM"
  },
  {
    "COMPOUND": "CN1CCN(c2ccc(-c3cnc(N)c(-c4cc5c(cc4F)C(=O)NCC5)n3)cc2)CC1 [Example I-12]",
    "IC50": "11 to 20 nM"
  },
  {
    "COMPOUND": "CC(C)[C@@H]1CN(c2ccc(-c3cnc(N)c(-c4ccc5c(c4)CCNC5=O)n3)c(F)c2F)CCO1 [Example I-15]",
    "IC50": "21 to 200 nM"
  }
]

*Q* State the recorded IC50 for this entry: Cc1[nH]c(=O)c2cc(F)c(-c3nc(-c4ccc(C5CCOCC5)c(CN(C)C)c4)cnc3N)cc2c1F [II-6]
*A* 21 to 200 nM

*Q* Now consider CN1CCN(c2ccc(-c3cnc(N)c(-c4ccc5c(c4)CCNC5=O)n3)cc2F)CC1 [Example I-4] .
*A* 6 to 10 nM

---

Target: Recombinant (1-346) HPK1 (h) (Homo sapiens)
Construct: Recombinant (1-346) HPK1 (h) is incubated with 8 mM MOPS pH 7.0
Sequence (Q92918 1-346): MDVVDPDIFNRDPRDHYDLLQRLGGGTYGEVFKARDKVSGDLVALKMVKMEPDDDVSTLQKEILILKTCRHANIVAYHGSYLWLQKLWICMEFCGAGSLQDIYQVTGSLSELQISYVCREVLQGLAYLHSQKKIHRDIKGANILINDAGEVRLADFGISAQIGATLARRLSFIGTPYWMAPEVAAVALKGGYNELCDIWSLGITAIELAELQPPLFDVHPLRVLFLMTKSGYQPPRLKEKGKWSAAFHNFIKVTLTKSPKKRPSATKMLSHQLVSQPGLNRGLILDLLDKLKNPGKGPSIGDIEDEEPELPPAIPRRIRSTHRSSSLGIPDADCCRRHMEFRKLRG
Experiment: HPK1 Human STE Kinase Enzymatic Radiometric Assay
Assay type: biochemical
Settings: [gamma-33P]-ATP, myelin basic protein substrate, read-out: HPK1 IC50 nM Range*
Procedure: (a) HPK1 Human STE Kinase Enzymatic Radiometric Assay A stock solution of 10 mM of test compound is prepared in DMSO. The compound plate was prepared by 3-fold and 9-point serial dilutions. Recombinant (1-346) HPK1 (h) is incubated with 8 mM MOPS pH 7.0, 0.2 mM EDTA, 0.33 mg/mL myelin basic protein, 10 mM MgAcetate and [gamma-33P]-ATP (specific activity and concentration as required). The reaction is initiated by the addition of the Mg/ATP mix. […]
Reported IC50 values are given for each entry in this list.

*Q* Request the reported IC50 associated with C[C@@H]1CCCCN1c1ccc(-c2cnc(N)c(-c3ccc4c(c3)CCNC4=O)n2)c(F)c1
*A* 0.1 to 5 nM

*Q* Would you mind doing CN1CCN(c2ccc(-c3cnc(N)c(-c4cc(F)c5c(c4)CCNC5=O)n3)cc2)CC1 as well?
*A* 0.1 to 5 nM

---

Target: Recombinant (1-346) HPK1 (h) (Homo sapiens, UniProt Q92918)
Construct: Recombinant (1-346) HPK1 (h) is incubated with 8 mM MOPS pH 7.0
Sequence (Q92918 1-346): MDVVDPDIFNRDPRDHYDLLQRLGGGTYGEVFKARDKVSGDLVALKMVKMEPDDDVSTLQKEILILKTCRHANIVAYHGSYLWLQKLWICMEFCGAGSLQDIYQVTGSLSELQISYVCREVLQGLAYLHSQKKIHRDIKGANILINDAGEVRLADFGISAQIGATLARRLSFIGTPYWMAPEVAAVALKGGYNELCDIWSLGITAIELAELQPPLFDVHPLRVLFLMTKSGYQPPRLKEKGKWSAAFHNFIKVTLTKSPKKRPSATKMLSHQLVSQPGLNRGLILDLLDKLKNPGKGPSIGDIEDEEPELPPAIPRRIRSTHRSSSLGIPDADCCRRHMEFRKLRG
Experiment: HPK1 Human STE Kinase Enzymatic Radiometric Assay
Format: biochemical
Conditions: [gamma-33P]-ATP, myelin basic protein substrate, read-out: HPK1 IC50 nM Range*
Method: (a) HPK1 Human STE Kinase Enzymatic Radiometric Assay A stock solution of 10 mM of test compound is prepared in DMSO. The compound plate was prepared by 3-fold and 9-point serial dilutions. Recombinant (1-346) HPK1 (h) is incubated with 8 mM MOPS pH 7.0, 0.2 mM EDTA, 0.33 mg/mL myelin basic protein, 10 mM MgAcetate and [gamma-33P]-ATP (specific activity and concentration as required). The reaction is initiated by the addition of the Mg/ATP mix. […]
RECORDED_ENDPOINT: IC50

[
  {
    "COMPOUND": "CN1CCN(c2ccc(-c3cnc(N)c(-c4ccc5c(c4)CCNC5=O)n3)cc2)CC1 [Example I-1]",
    "STUDY_TARGET": "Recombinant (1-346) HPK1 (h) (Homo sapiens, UniProt Q92918)",
    "RESULT": "0.1 to 5 nM"
  }
]

*Q* Report IC50 for CC(C)N1CCN(c2ccc(-c3cnc(N)c(-c4ccc5c(c4)CCNC5=O)n3)cc2)[C@H](C)C1 [Example I-53] please.
*A* 0.1 to 5 nM

*Q* Thanks! And CC(C)C1CCCN(c2ccc(-c3cnc(N)c(-c4ccc5c(c4)CCNC5=O)n3)c(F)c2)C1 (stereo not shown) [Example I-25] ?
*A* 6 to 10 nM

*Q* Follow-up entry: Cc1[nH]c(=O)c2cc(F)c(-c3nc(-c4ccc(C5CCOCC5)c(CN(C)C)c4)cnc3N)cc2c1F [II-6]
*A* 0.1 to 5 nM
